Reference source: the kinase profiling compilation of Christmann-Franck et al. (2016)

kinase still bound, per cent of control: recorded values
Biological target: PKN3 (M.tuberculosis)
Assay: KINOMEscan competition binding
Conditions: compound 10.0 µM

compound | kinase still bound, per cent of control / %
C=CC(=O)Nc1ccc(C(=O)c2sc(Nc3ccc(N4CCN(C)CC4)cc3OC)nc2N)cc1 | 100
CCN(CCO)CCCOc1ccc2c(Nc3cc(CC(=O)Nc4cccc(F)c4)[nH]n3)ncnc2c1 | 50
O=c1[nH]c2ccccc2n1C1CCN(Cc2ccc(-c3nc4cc5[nH]cnc5cc4nc3-c3ccccc3)cc2)CC1 | 78
CCN1CCN(Cc2ccc(NC(=O)c3ccc(C)c(/C=C/c4cnc5[nH]ccc5c4OC)c3)cc2C(F)(F)F)CC1 | 89
CNC(=O)Nc1ccc(-c2nc(N3CC4CCC(C3)O4)c3cnn(C4CCC5(CC4)OCCO5)c3n2)cc1 | 94
COc1cc2c(Nc3ccc(NC(=O)c4ccccc4)cc3)ncnc2cc1OCCCN1CCOCC1 | 37
CCCS(=O)(=O)Nc1ccc(F)c(C(=O)c2c[nH]c3ncc(Cl)cc23)c1F | 46
CC1=C(C(=O)Nc2cc3cn[nH]c3cc2F)C(c2ccc(C(F)(F)F)cc2)CC(=O)N1 (centres undefined) | 92
CC(=O)c1c(C)c2cnc(Nc3ccc(N4CCNCC4)cn3)nc2n(C2CCCC2)c1=O | 1
